testTarget: T1, human 2Ig-B7H3 (B7H3-2Ig-His) (human, UniProt Q5ZPR3 29-466)
T1 construct: Recombinant His-tagged protein immobilised on a CM5 chip; also called 21g-B7H3; B7H3-21g-His; not shown: His tag
T1 sequence: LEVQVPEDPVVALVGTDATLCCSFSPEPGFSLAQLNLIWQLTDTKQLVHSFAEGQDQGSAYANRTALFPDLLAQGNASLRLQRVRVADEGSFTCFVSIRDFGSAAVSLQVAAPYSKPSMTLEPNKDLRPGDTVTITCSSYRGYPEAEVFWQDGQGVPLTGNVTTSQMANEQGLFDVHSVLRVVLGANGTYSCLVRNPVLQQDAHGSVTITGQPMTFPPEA
protocolDescription: SPR, Biacore T200, 2Ig-B7H3-His on CM5 chip, 1:1 fit
recordedMetric: t ½ (h)
Could you give me the number in h? Just the number is fine.

Sure, the documented t ½ for 175Lu-DTPA-8H9-antibody (CAR3.6) (antibody, mouse IgG1, kappa, V domains shown, p-SCN-Bn-CHX-A″-DTPA conjugated (CAR 3.6 per antibody), labelled with cold lutetium-175; sites not stated) VH: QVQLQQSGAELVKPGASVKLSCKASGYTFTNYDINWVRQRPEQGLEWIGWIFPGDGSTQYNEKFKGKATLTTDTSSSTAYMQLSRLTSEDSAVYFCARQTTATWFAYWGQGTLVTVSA VL: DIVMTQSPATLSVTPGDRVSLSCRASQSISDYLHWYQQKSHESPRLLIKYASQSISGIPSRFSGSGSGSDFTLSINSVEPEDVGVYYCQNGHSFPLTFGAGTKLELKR is 5

The binder identified as 175Lu-DOTA-8H9-antibody (CAR2.6) (antibody, mouse IgG1, kappa, V domains shown, p-SCN-Bn-DOTA conjugated (CAR 2.6 per antibody), labelled with cold lutetium-175; sites not stated) VH: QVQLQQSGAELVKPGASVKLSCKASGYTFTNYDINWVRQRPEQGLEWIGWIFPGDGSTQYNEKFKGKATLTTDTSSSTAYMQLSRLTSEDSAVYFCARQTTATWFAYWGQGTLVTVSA VL: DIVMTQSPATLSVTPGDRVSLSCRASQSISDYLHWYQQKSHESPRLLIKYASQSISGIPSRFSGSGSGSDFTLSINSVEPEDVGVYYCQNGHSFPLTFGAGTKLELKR registered its t ½ at 6.11
